System: Pseudomonas aeruginosa
Test method notes: Antibacterial activity against Pseudomonas aeruginosa ATCC 11775
Format: functional
Observable: MIC (µg/mL)

[[record]]
compound_string = "C1#CCOc2ccc(CNc3ccccc3)c(c2)OCC#C/C=C\\1"
measured_target = "Pseudomonas aeruginosa"
observable = "MIC"
limit_qualifier = "="
value = 16

[[record]]
compound_string = "C#CCOc1cccc(OCC#C)c1"
measured_target = "Pseudomonas aeruginosa"
observable = "MIC"
limit_qualifier = ">"
value = 1000

[[record]]
compound_string = "Cc1ccc(NCc2ccc3cc2OCC#C/C=C\\C#CCO3)cc1"
measured_target = "Pseudomonas aeruginosa"
observable = "MIC"
limit_qualifier = "="
value = 32

[[record]]
compound_string = "CN(C)[C@@H]1C(O)=C(C(N)=O)C(=O)[C@@]2(O)C(O)=C3C(=O)c4c(O)cccc4[C@@](C)(O)[C@H]3C[C@@H]12"
measured_target = "Pseudomonas aeruginosa"
observable = "MIC"
limit_qualifier = "="
value = 1

[[record]]
compound_string = "C#CCOc1ccc(C=O)c(OCC#C)c1"
measured_target = "Pseudomonas aeruginosa"
observable = "MIC"
limit_qualifier = ">"
value = 1000

[[record]]
compound_string = "C1#CCOc2ccc(/C=N/c3ccccc3)c(c2)OCC#C/C=C\\1"
measured_target = "Pseudomonas aeruginosa"
observable = "MIC"
limit_qualifier = "="
value = 128

